These data points were gathered from PubChem BioAssay AID701.

Consider the following molecules and their measured inhibition readings.
target or test system: Coagulation factor XII (Homo sapiens)
assay explanation: human FXIIa protease inhibitors, primary screen, biochemical, single well (AID 701);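 also: 0% = enzyme with vehicle only and 100% = no enzyme blank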
condition label: purified human FXIIa, AMC substrate fluorescence, 2 h; at 10 µM; stronger effect = higher value
Among all 33,000 compounds or so, about 70 (0.2%) were called active. Only a sample is shown.
Value expressed in %; do not type the unit.

# input Please look up its inhibition: "COc1cc(OC)c(-n2c(C)cc(C=O)c2C)cc1Cl"
# output 3.21

New cases:
# input Please look up its inhibition: "Cn1nnc(NC(=O)CSc2ncn[nH]2)n1"
# output 2.58

# input Thanks! And CC(C)CNC(=O)CC(c1ccccc1)c1c(O)ccc2ccccc12 (configuration not stated) ?
# output 1.86

# input Thanks! And "CCOc1nc(NCCN2CCOCC2)nc(Nc2ccc(C)cc2)n1" ?
# output 2.85

# input Thanks! And O=C(CCCn1c(SCC(=O)c2ccccc2)nc2ccccc2c1=O)NCC1CCCO1 (configuration not stated) ?
# output 3.06

# input Thanks! And CC1CCCCC1NC(=O)C1CCCN1S(=O)(=O)c1cccc2nsnc12 (configuration not stated) ?
# output 10.7

# input Thanks! And "CCc1ccccc1NC(=O)CN(C)S(=O)(=O)c1ccc2c(c1)c(=O)n(C)c(=O)n2C" ?
# output -0.9

====

target or test system: Coagulation factor XII (Homo sapiens) (UniProt P00748)
Sequence (P00748 20-372 limits assumed): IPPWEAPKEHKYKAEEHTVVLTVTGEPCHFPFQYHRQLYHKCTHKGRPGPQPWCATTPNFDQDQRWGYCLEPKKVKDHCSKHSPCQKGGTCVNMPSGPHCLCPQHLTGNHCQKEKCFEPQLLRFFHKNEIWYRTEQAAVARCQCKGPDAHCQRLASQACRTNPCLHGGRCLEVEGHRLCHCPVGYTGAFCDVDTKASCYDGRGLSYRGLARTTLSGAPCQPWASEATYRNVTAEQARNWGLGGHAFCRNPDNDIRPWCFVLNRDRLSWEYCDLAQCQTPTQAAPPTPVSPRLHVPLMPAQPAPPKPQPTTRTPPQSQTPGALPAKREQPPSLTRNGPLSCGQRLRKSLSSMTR
Sequence (P00748 373-615 limits assumed): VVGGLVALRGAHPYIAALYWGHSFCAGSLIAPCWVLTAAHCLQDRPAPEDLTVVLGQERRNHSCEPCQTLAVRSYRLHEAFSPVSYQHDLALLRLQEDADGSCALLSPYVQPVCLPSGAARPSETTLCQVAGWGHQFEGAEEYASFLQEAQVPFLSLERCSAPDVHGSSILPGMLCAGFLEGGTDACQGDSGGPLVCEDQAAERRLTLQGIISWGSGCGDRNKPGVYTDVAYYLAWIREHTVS
assay explanation: human FXIIa protease inhibitors, primary screen, biochemical, single well (AID 701);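 also: 0% = enzyme with vehicle only and 100% = no enzyme blank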
condition label: purified human FXIIa, AMC substrate fluorescence, 2 h; at 10 µM; stronger effect = higher value
Among all 33,000 compounds or so, about 70 (0.2%) were called active. Only a sample is shown.
Lab note: anything with inhibition at or over 6% counts as criterion met; the rest go in criterion not met.

Some entries whose results are on file:
# input Check the entry CCOCCOC(=O)C1=C(C)N(C)C(=O)NC1c1ccccc1F (configuration not stated) : does inhibition equal or exceed 6%?
# output criterion not met

# input Thanks! And "Cn1c(=O)[nH]c(=O)c2c1nc(N1CCN(CCO)CC1)n2CCSc1nc2ccccc2s1" ?
# output criterion not met

# input Thanks! And "Cc1ccc(C)c(N2C(=O)CS/C2=N\NC(=O)c2ccccc2Cl)c1" ?
# output criterion met

# input Thanks! And "COc1cc(CC(=O)NCc2cccs2)cc(OC)c1OC" ?
# output criterion met

# input Thanks! And "N#C/C(=C\c1ccccc1)c1n[nH]c(Cn2cncn2)n1" ?
# output criterion not met

New cases:
# input Check the entry "N#Cc1cccc(NC(=O)CCC2CCCC2)c1" : does inhibition equal or exceed 6%?
# output criterion not met

# input Thanks! And "Cc1ccc(-n2c(CNc3ccc(F)cc3)nnc2SCC(=O)N2CCOCC2)cc1" ?
# output criterion not met

# input Thanks! And "CCOc1ccc(NC(=O)N(CC(C)C)CC(C)C)cc1" ?
# output criterion not met

# input Thanks! And Cc1ccc(CCN2CC(C(=O)O)CC2=O)cc1 (configuration not stated) ?
# output criterion met

# input Thanks! And "Cn1c(=O)c2c(SCC(=O)N3CCOCC3)nc(C3CC3)nc2n(C)c1=O" ?
# output criterion not met

====

target or test system: Coagulation factor XII (Homo sapiens) (UniProt P00748)
assay explanation: human FXIIa protease inhibitors, primary screen, biochemical, single well (AID 701);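 also: 0% = enzyme with vehicle only and 100% = no enzyme blank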
condition label: purified human FXIIa, AMC substrate fluorescence, 2 h; at 10 µM; stronger effect = higher value
In all, about 33,000 compounds went through this assay and about 70 (0.2%) were called active. These entries were drawn from the full list.
result type: inhibition (%)
Value expressed in %; do not type the unit.

Field: example entries. Status: answers known.
# input Please look up its inhibition: "Cn1ccs/c1=N\S(=O)(=O)c1ccc(C(C)(C)C)cc1"
# output 6.13

# input Thanks! And "CNC(=O)c1nnc(Cc2ccc(Cl)cc2)o1" ?
# output 2.02

# input Thanks! And "CCOC(=O)N1CCC(Nc2c(NCCCN3CCN(CC)CC3)c(=O)c2=O)CC1" ?
# output -0.96

# input Thanks! And "Cn1c(=O)n(CCc2ccccc2)c(=O)c2c1nc1n2CCCN1c1ccccc1" ?
# output -0.18

# input Thanks! And "CCCc1noc2c1/C(=N\O)CCC2" ?
# output 8.44

# input Thanks! And "COC(=O)c1ccccc1Sc1c(/C=N/OCc2ccc(Cl)cc2)c(C(F)(F)F)nn1C" ?
# output 5.69

# input Thanks! And "CCCCCN1CC(O)=C(c2ccccc2)C1=N" ?
# output -12.2

# input Thanks! And "CCOC(=O)CN(Cc1ccc(OC)c(OC)c1)S(=O)(=O)c1ccc(OC)cc1" ?
# output 8.43

# input Thanks! And "COc1cccc(NC(=O)Cc2ccc(C)cc2)c1" ?
# output 3.98

# input Thanks! And "Cc1ccc(NC(=O)CSCC(=O)N2CCOCC2)cc1" ?
# output 2.79

New cases:
# input Please look up its inhibition: COc1ccc(C2=NOC3(CC(=O)N(c4ccc(C)cc4)C3=O)C2)cc1 (centres undefined)
# output 12.1

# input Thanks! And "Cc1cccc(C)c1NC(=O)CSc1nnc(-c2ccccc2)n1Cc1ccc2c(c1)OCO2" ?
# output 7.65

# input Thanks! And "O=C(OCC#CCSc1nnc(-c2ccncc2)o1)c1sc2ccccc2c1Cl" ?
# output -11.2

# input Thanks! And Cc1cc(C(=O)OC(C)C(=O)Nc2cccc(S(=O)(=O)N3CCOCC3)c2)c(C)o1 (centres undefined) ?
# output 8.04

====

target or test system: Coagulation factor XII (Homo sapiens) (UniProt P00748)
assay explanation: human FXIIa protease inhibitors, primary screen, biochemical, single well (AID 701);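 also: 0% = enzyme with vehicle only and 100% = no enzyme blank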
condition label: purified human FXIIa, AMC substrate fluorescence, 2 h; at 10 µM; stronger effect = higher value
Screen size: about 33,000 compounds; about 70 (0.2%) were called active. Only a sample is shown.
result type: inhibition (%)
Value expressed in %; do not type the unit.

Field: example entries. Status: answers known.
# input Please look up its inhibition: "CC(=O)c1c(C)n(-c2ccc(N(C)C)cc2)c2ccc(OCC(N)=O)cc12"
# output 8.5

# input Thanks! And "O=P(c1ccc2c(c1)OCCO2)(N1CCOCC1)N1CCOCC1" ?
# output -11.5

# input Thanks! And CCCn1c(C(Cc2ccccc2)NC(=O)COC)nc2ccccc21 (centres undefined) ?
# output 7.07

# input Thanks! And "Cc1cccc(NC(=O)CSc2nnc(-c3ccco3)o2)c1" ?
# output 7.32

# input Thanks! And "COC(CNC(=O)Cn1ncc2ccsc2c1=O)OC" ?
# output 8.94

# input Thanks! And "COc1cc(OC)cc(-c2cc3nc(C4CCN(C(=O)OC(C)(C)C)CC4)cc(=O)n3[nH]2)c1" ?
# output -5.3

New cases:
# input Please look up its inhibition: "COCCn1c(SCc2nc3cc(OC)c(OC)cc3c(=O)[nH]2)nnc1-c1ccncc1"
# output 3.73

# input Thanks! And "CCOc1ccc(C(=O)NCCCN2CCCC2=O)cc1" ?
# output 6.23

====

target or test system: Coagulation factor XII (Homo sapiens) (UniProt P00748)
assay explanation: human FXIIa protease inhibitors, primary screen, biochemical, single well (AID 701);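 also: 0% = enzyme with vehicle only and 100% = no enzyme blank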
condition label: purified human FXIIa, AMC substrate fluorescence, 2 h; at 10 µM; stronger effect = higher value
About 70 (0.2%) of roughly 33,000 compounds were called active. These entries were drawn from the full list.
result type: inhibition (%)
Value expressed in %; do not type the unit.

Field: example entries. Status: answers known.
# input Please look up its inhibition: "Cc1ccc(CNC(=O)CCNS(=O)(=O)c2cccc3nonc23)cc1"
# output 7.33

# input Thanks! And CC(=O)c1cccc(NC(=O)C2CCCN2S(=O)(=O)c2cccc3nsnc23)c1 (stereo not drawn) ?
# output -30.9

# input Thanks! And COC(=O)C(C)n1cnc2c(nnn2-c2cccc(Cl)c2)c1=O (stereo not drawn) ?
# output 4.25

# input Thanks! And "S=c1nccc(-c2cc(Cl)sc2Cl)[nH]1" ?
# output 3.01

New cases:
# input Please look up its inhibition: "CCCNC(=O)CN(Cc1ccccc1F)S(=O)(=O)c1ccc(C)cc1"
# output 16.6

# input Thanks! And "CCn1c(CC(=O)Nc2ccc(C)cc2)nnc1SCC(=O)Nc1nc(C)cs1" ?
# output 3

====

target or test system: Coagulation factor XII (Homo sapiens)
assay explanation: human FXIIa protease inhibitors, primary screen, biochemical, single well (AID 701);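 also: 0% = enzyme with vehicle only and 100% = no enzyme blank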
condition label: purified human FXIIa, AMC substrate fluorescence, 2 h; at 10 µM; stronger effect = higher value
Out of some 33,000 compounds screened, about 70 (0.2%) were called active. The list is a sample of the results.
result type: inhibition (%)
Value expressed in %; do not type the unit.

Field: example entries. Status: answers known.
# input Item O=C1CSC(c2ccc(Cl)cc2)N1 (configuration not stated) with Coagulation factor XII (Homo sapiens) - inhibition?
# output -6.79

# input Thanks! And "CCOc1ccc(NC(=O)Nc2cc(C)on2)cc1" ?
# output 6.76

# input Thanks! And "COc1ccc(C)cc1N(C)C(=O)c1coc(=O)c2ccccc12" ?
# output 1.74

# input Thanks! And "COc1ccc(C(=O)Nc2ccc(CN3CCOCC3)cc2)cc1" ?
# output -0.34

# input Thanks! And "Cc1ccc(N(CC(=O)Nc2cc(C)cc(C)c2)S(=O)(=O)c2cccc3nonc23)cc1" ?
# output 17.2

# input Thanks! And CC(=O)c1cccc(NC(=O)N2CCCC2C(=O)NCCc2ccccc2)c1 (configuration not stated) ?
# output 6.02

New cases:
# input Item O=C1CSC(c2cccc(F)c2)N1c1ccc(O)cc1 (configuration not stated) with Coagulation factor XII (Homo sapiens) - inhibition?
# output 20.5

# input Thanks! And "O=C(Nc1cc2ccccc2oc1=O)C1CCCCC1" ?
# output 6

# input Thanks! And "Cc1csc(OCC(=O)Nc2ccc(C)c(C)c2)n1" ?
# output 7.64

# input Thanks! And "CCC(=O)NC(Nc1cc(C)ccn1)(C(F)(F)F)C(F)(F)F" ?
# output 5.79

# input Thanks! And "Cc1cccc(NC(=O)Cn2cc(C(=O)c3ccco3)c3ccccc32)c1" ?
# output -10.1

# input Thanks! And "CC1(C)COC(c2cccn2Cc2ccccc2Cl)=N1" ?
# output 6.11
